tested on: PfAP2-EXP AP2 domain (GST-tagged); assay: gcPBM binding intensity (ln(normalized median fluorescence intensity)); higher = stronger DNA binding
Over roughly 25,000 sequences, “ln(normalized median fluorescence intensity)” has its median near 8.6; the highest 2% begin near 10. Shown is part of a subset that was picked to be rich in the highest values.
Reported gcPBM binding intensity (ln) by item:

entrySequence	gcPBM binding intensity (ln)
ATATAATATATTTTCACACATATTTTATGATGATAA [CACACA_site5614]	8.3
GAATTAATTTTAAAACGTACATGGGTGTATTTACAC [XGTACX_site5939]	8.86
TATTCCTTCTACAATTAAATAATTATAATAAATATA [GTGCAC_negctrl_site26]	8.46
ATAATATATATATATAGTACATATATATAATATTCT [XGTACX_site2445]	8.2
TTTTGATATATGAATATTAAGTTATATAATATTTTA [TGCATGCA_negctrl_site39]	7.92
AATATATCATAATGATGTACAAGTAAAACCGTTACA [XGTACX_site4280]	8.74

====

tested on: PfAP2-EXP AP2 domain (GST-tagged); assay: gcPBM binding intensity (ln(normalized median fluorescence intensity)); higher = stronger DNA binding
In all, about 25,000 sequences were measured (“ln(normalized median fluorescence intensity)”: median about 8.6, highest 2% from about 10 on). This is one part of a sample in which the highest values are shown more often than they occur.
measurementName: gcPBM binding intensity (ln)

entrySequence	reported
TTTTAAACAAGACACACACACATATATATATATATA [CACACA_site925]	10.2
TTATTGTAAATATATGCATGTGCAAAATGAAAAAAA [TGCATGCA_site399]	9.07
TAATTTTTTAAACACACACACATATATATATATATA [CACACA_site4230]	10.2

====

test system: PfAP2-EXP AP2 domain (GST-tagged); test: gcPBM binding intensity (ln(normalized median fluorescence intensity)); higher = stronger DNA binding
The full ranking holds about 25,000 sequences; the median of “ln(normalized median fluorescence intensity)” is about 8.6, and the highest 2% start at about 10. The entries come from a sample that favours the highest values as a whole.
Quick rule: gcPBM binding intensity (ln) of at least 9 means y, below that means n.

entrySequence	classAssignment
TATGTATATATATATATATATATATATATATATATA [TGCATGCA_negctrl_site491]	y
TTAACATATTTGTTAGTGCATTTTGATATTACACAT [GTGCAC_site9978]	n
GAAAAAAGAAATTAAACATGCATCTGCAAATTTAAA [TGCATGCA_site974]	n
TCCTTAAAAATCTAAAAAGAAAAAAACATATATTTT [GTGCAC_negctrl_site123]	n

====

Reported gcPBM binding intensity (ln) by item:
tested on: PfAP2-EXP AP2 domain (GST-tagged); experiment: gcPBM binding intensity (ln(normalized median fluorescence intensity)); higher = stronger DNA binding
The full ranking holds about 25,000 sequences; the median of “ln(normalized median fluorescence intensity)” is about 8.6, and the highest 2% start at about 10. Shown is part of a subset that was picked to be rich in the highest values.

entrySequence	gcPBM binding intensity (ln)
GTATATATGTATATGTGTACACATATTCTTAACTCA [XGTACX_site309]	8.88
TGGGTCTCTAACTGGTGTACTATTTACATATTATAC [XGTACX_site8593]	8.75
TTTTTTTTTTTTTTTGCACACAGGGTGTAGGACAAG [CACACA_site2842]	8.6
AAAAAAAAAAAAAACACACACACACCCACATATACA [CACACA_site2663]	8.53
CATTATAAGAAACACACACACATATATATATATATA [CACACA_site1051]	10.2
TTTTTTTTTTTTTTTTTTTTACGATATATTTTAAAA [XGTACX_negctrl_site401]	8.03
AAAAAAAAAAAAAAAACACACACATATATATATATA [CACACA_site8571]	10.1
TCGAACATTAACATAACACACATATATATATATATA [CACACA_site2900]	10.2
ATATATATATATATTGTACACACATTTATGCATATA [CACACA_site9055]	10
TTAATTAAGAAACACACACACATATATATATATATT [CACACA_site2290]	8.67
AAAATTTATATAAGCACACAAATATATATTTATATC [CACACA_site3291]	8.55
TCGAACATTAACATAACACACATATAGATTTATATA [CACACA_site7380]	8.29
CACTTAACACAAGAGTGTACACATATATATATATAT [XGTACX_site686]	10.1
GCTTCTTAGTATACTTTATAAAATATATATTAAATA [XGTACX_negctrl_site57]	8.75
AAATTTATAAAGAACACACACATATAAATATAAATA [CACACA_site6174]	8.93
